Quick reference for IC50 among some compounds
molecular target: Sodium-dependent dopamine transporter (Rattus norvegicus, UniProt P23977); experiment: Binding affinity was determined at the dopamine transporter labeled with radioligand [125 I] RTI-55
Sequence (P23977 whole entry): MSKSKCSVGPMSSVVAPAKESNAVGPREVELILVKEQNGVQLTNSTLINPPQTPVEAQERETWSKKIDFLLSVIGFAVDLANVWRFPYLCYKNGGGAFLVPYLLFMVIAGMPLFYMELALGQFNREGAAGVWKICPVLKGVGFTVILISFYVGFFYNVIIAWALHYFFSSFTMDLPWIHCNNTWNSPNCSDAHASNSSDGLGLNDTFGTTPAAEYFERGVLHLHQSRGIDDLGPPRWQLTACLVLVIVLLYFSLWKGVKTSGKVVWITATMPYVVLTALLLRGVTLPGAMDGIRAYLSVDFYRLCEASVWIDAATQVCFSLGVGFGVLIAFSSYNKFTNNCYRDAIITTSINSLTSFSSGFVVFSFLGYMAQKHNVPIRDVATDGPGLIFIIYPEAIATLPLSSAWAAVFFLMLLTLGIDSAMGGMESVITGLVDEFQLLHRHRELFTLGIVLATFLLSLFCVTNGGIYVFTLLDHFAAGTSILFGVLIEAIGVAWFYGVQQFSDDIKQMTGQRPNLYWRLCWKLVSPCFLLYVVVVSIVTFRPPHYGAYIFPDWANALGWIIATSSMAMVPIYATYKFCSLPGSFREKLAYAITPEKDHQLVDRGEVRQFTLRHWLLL

{"SAMPLE SMILES": "Fc1ccc(C(OCCN2CCN(CCCc3cccs3)CC2)c2ccc(F)cc2)cc1", "TARGET UNDER TEST": "Sodium-dependent dopamine transporter (Rattus norvegicus, UniProt P23977)", "UNITS LABEL": "nM", "IC50": 3.3}
{"SAMPLE SMILES": "Fc1ccc(C(OCCN2CCN(CCCc3cccnc3)CC2)c2ccc(F)cc2)cc1", "TARGET UNDER TEST": "Sodium-dependent dopamine transporter (Rattus norvegicus, UniProt P23977)", "UNITS LABEL": "nM", "IC50": 16}
{"SAMPLE SMILES": "Fc1ccc(C(OCCN2CCN(C/C=C/c3cccnc3)CC2)c2ccc(F)cc2)cc1", "TARGET UNDER TEST": "Sodium-dependent dopamine transporter (Rattus norvegicus, UniProt P23977)", "UNITS LABEL": "nM", "IC50": 13.6}
{"SAMPLE SMILES": "Fc1ccc(C(OCCN2CCN(C/C=C/c3cccs3)CC2)c2ccc(F)cc2)cc1", "TARGET UNDER TEST": "Sodium-dependent dopamine transporter (Rattus norvegicus, UniProt P23977)", "UNITS LABEL": "nM", "IC50": 2.2}
{"SAMPLE SMILES": "Fc1ccc(C(OCCN2CCN(CCCc3ccco3)CC2)c2ccc(F)cc2)cc1", "TARGET UNDER TEST": "Sodium-dependent dopamine transporter (Rattus norvegicus, UniProt P23977)", "UNITS LABEL": "nM", "IC50": 5.9}
